Assignment: determine reported pKd for the given binders.
Target: T1, full-length Sudan GP (GPFL) (Sudan virus (SUDV), UniProt Q7T9D9 33-650)
T1 construct: also called Sudan GPFL; GP(S)FL
T1 sequence: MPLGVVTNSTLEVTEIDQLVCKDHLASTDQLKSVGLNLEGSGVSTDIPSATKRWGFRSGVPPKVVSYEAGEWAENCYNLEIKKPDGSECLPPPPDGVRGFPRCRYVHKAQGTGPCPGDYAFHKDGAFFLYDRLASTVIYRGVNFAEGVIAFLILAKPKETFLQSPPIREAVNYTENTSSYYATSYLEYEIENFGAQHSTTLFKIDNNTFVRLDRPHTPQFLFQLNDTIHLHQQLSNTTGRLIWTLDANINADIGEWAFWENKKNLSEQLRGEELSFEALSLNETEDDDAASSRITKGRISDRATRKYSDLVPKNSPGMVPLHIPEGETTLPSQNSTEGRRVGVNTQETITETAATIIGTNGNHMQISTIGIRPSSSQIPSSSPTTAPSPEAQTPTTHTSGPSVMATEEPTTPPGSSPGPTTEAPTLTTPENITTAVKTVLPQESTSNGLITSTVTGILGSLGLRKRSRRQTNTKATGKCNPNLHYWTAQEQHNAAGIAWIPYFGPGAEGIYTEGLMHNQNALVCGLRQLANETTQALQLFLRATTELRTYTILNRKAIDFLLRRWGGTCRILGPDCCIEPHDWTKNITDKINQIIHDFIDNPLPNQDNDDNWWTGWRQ
Test: BLI, Fab, pH 7.4
The quantity pKd is defined as the negative base-10 logarithm of the molar concentration.

Record Fab generated from 285S (Fab, V domains shown) VH: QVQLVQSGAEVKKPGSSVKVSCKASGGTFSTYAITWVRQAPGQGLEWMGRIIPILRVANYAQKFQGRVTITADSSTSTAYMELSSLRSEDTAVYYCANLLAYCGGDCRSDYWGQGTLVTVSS VL: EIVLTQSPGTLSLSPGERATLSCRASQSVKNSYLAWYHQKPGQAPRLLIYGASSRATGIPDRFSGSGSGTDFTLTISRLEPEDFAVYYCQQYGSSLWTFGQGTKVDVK , field pKd: 8.21

Record Fab generated from 102S (Fab, V domains shown) VH: EVQLVESGGGLVQPGGSLRLSCSASGFTFHSYDMNWARQAPGKGLEWVSEISSSGQSKNYADSVRGRFTISRDNAKNSLYLQINSLRSEDTAVYYCARVGFVAKFGSDFSITHGTYYLDYWGQGTLVTVSS VL: QLVLTQSPATLSLSPGERATLSCRASQSVSNYLAWYQQKPGQAPRLLIYDASNRAPGVPARFSGSGSGTDFSLTISSLEPEDFAVYYCLQRSNWPPWTFGQGTKVEIK , field pKd: 7.04
